Each entry below carries its recorded glycan array binding signal (z-score).
subject.of.test: Fuc(a1-2)[GalNAc(a1-3)]Gal(b1-4)GlcNAc(b1-2)Man(a1-3)[Fuc(a1-2)[GalNAc(a1-3)]Gal(b1-4)GlcNAc(b1-2)Man(a1-6)]Man(b1-4)GlcNAc(b1-4)[Fuc(a1-6)]GlcNAc
assay.remarks: glycan array binding signal (z-score within array); higher = stronger binding
settings: glycan notation: IUPAC condensed, linker removed
Shown is part of a subset that was picked to be rich in the strongest signals.

binder | glycan array binding signal (z-score)
Mermaid3 (Stilbonema majum) (protein) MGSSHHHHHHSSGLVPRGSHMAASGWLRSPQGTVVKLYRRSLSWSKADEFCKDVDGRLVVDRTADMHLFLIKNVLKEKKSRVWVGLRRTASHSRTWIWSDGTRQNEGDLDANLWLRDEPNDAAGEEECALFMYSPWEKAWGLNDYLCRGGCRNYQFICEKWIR | 0.166
EUL D1A first (Oryza sativa) (protein) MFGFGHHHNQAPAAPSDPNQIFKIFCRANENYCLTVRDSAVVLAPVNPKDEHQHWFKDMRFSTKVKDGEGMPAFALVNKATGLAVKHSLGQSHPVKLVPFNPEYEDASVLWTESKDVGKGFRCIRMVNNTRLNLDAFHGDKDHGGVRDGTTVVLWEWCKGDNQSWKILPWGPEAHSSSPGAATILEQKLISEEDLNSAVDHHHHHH | 0.095
ERGIC1-EDTA (Homo sapiens), Q969X5 (protein) MKFLVNVALVFMVVYISYIYAAAHMHHHHHHDYDIPTTENLYFQGSEVVNELYVDDPDKDSGGKIDVSLNISLPNLHCELVGLDIQDEMGRHEVGHIDNSMKIPLNNGAGCRFEGQFSINKVPGNFHVSTHSATAQPQNPDMTHVIHKLSFGDTLQVQNIHGAFNALGGADRLTSNPLASHDYILKIVPTVYEDKSGKQRYSYQYTVANKEYVAYSHTGRIIPAIWFRYDLSPITVKYTE | 2.25
